The reader will find reported Phytotoxicity Ze values listed item by item below.
Tested on: corn (Ze)
test-summary: Test Example 11: crop plant selectivity by upland field foliage treatment (corn), phytotoxicity
cond: upland field foliage treatment, dose 1.6 g ai/10a, 14th day after treatment
Description: (Test on Crop Plant Selectivity by Upland Field Foliage Treatment) In a plastic pot (surface area: 600 cm^2) filled with sand, corn (Ze), pale smartweed (Po), slender amaranth (Am), common lambsquarters (Ch) and China jute (Ab) were sown and cultured in a green house for 2 weeks. […]

Example molecules with recorded Phytotoxicity Ze:
Cn1c(C(F)(F)F)ccc(-c2cc(Oc3ncccn3)c(Cl)cc2Cl)c1=O
2
C#CCOc1cc(-c2ccc(C(F)(F)F)n(N)c2=O)c(F)cc1Cl
2
Cn1c(C(F)(F)F)ccc(-c2cc(Oc3ccccc3)c(Cl)cc2F)c1=O
2
CC(C#N)Oc1cc(-c2ccc(C(F)(F)F)n(C)c2=O)c(F)cc1Cl (stereo not shown)
1
C=C(Cl)COc1cc(-c2ccc(C(F)(F)F)n(C)c2=O)c(F)cc1Cl
2
Cn1c(C(F)(F)F)ccc(-c2cc3c(cc2F)OCC(=O)N3CC#N)c1=O
2
Cn1c(C(F)(F)F)ccc(-c2c(F)cc(Cl)c3occc23)c1=O
2
CCCC(=O)c1cc(-c2ccc(C(F)(F)F)n(C)c2=O)c(F)cc1Cl
1

Problem: // query Phytotoxicity Ze value for entry `CC(C)C(=O)c1cc(-c2ccc(C(F)(F)F)n(C)c2=O)c(F)cc1Cl`
Solution: 2

Problem: Another molecule to look at: `COCc1cc2c(-c3ccc(C(F)(F)F)n(C)c3=O)c(F)cc(Cl)c2o1`
Solution: 2

Problem: Then this molecule: `C#CCNc1cc(-c2ccc(C(F)(F)F)n(C)c2=O)c(F)cc1Cl`
Solution: 2

Problem: Next molecule: `Cn1c(C(F)(F)F)ccc(-c2c(F)cc(Cl)c3oc(C(Br)Br)cc23)c1=O`
Solution: 2

====

Tested on: corn (Ze)
test-summary: Test Example 11: crop plant selectivity by upland field foliage treatment (corn), phytotoxicity
cond: upland field foliage treatment, dose 1.6 g ai/10a, 14th day after treatment
# maps each entry to its Phytotoxicity Ze

COCSc1cc(-c2ccc(C(F)(F)F)n(C)c2=O)c(Cl)cc1Cl
2
C#CCSc1cc(-c2ccc(C(F)(F)F)n(C)c2=O)c(Cl)cc1Cl
2

Problem: Item: `Cn1c(C(F)(F)F)ccc(-c2cc(OC3CCCC3)c(Cl)cc2F)c1=O` Test system: corn (Ze) Read-out: Phytotoxicity Ze Value: ?
Solution: 2

====

Recorded Phytotoxicity Ze for the following compounds
Tested on: corn (Ze)
test-summary: Test Example 11: crop plant selectivity by upland field foliage treatment (corn), phytotoxicity
cond: upland field foliage treatment, dose 1.6 g ai/10a, 14th day after treatment
Text: (Test on Crop Plant Selectivity by Upland Field Foliage Treatment) In a plastic pot (surface area: 600 cm^2) filled with sand, corn (Ze), pale smartweed (Po), slender amaranth (Am), common lambsquarters (Ch) and China jute (Ab) were sown and cultured in a green house for 2 weeks. […]
Kindly provide the number alone.

Cn1c(C(F)(F)F)ccc(-c2cc(OCCCl)c(Cl)cc2F)c1=O
1
Cn1c(C(F)(F)F)ccc(-c2c(F)cc(Cl)c3oc(C(=O)O)cc23)c1=O
1
Cn1c(C(F)(F)F)ccc(-c2cc(OCCCF)c(Cl)cc2F)c1=O
2
CCCc1cc2c(-c3ccc(C(F)(F)F)n(C)c3=O)c(F)cc(Cl)c2o1
2
CCOC(=O)CN1C(=O)COc2cc(F)c(-c3ccc(C(F)(F)F)n(C)c3=O)cc21
2

Problem: I would be grateful if you could share the reported Phytotoxicity Ze for `COc1cc(-c2ccc(C(F)(F)F)n(N)c2=O)c(F)cc1Cl` .
Solution: 1

Problem: Also, `C=CCN1C(=O)COc2ccc(-c3ccc(C(F)(F)F)n(C)c3=O)cc21` please.
Solution: 2

Problem: Next up: `C=CCOc1cc(-c2ccc(C(F)(F)F)n(C)c2=O)c(F)cc1Cl`
Solution: 2

Problem: Same lookup for `C=CCn1c(=O)sc2cc(F)c(-c3ccc(C(F)(F)F)n(C)c3=O)cc21` , please.
Solution: 2

Problem: Another compound to check: `Cn1c(C(F)(F)F)ccc(-c2cc(C(=O)OC3CCCC3)c(Cl)cc2F)c1=O`
Solution: 1

====

Test system: corn (Ze)
test-summary: Test Example 11: crop plant selectivity by upland field foliage treatment (corn), phytotoxicity
cond: upland field foliage treatment, dose 1.6 g ai/10a, 14th day after treatment
property-measured: Phytotoxicity Ze
The reply should be a number, written without any unit.

Cn1c(C(F)(F)F)ccc(-c2cc(OC3CCOC3)c(Cl)cc2F)c1=O (stereo not drawn)
2
C=CC(O)c1cc(-c2ccc(C(F)(F)F)n(C)c2=O)c(F)cc1Cl (stereo not drawn)
2

Attention now shifts to the item below.
Problem: Quick one: Phytotoxicity Ze for `CCOCOc1cc(-c2ccc(C(F)(F)F)n(C)c2=O)c(F)cc1Cl` ?
Solution: 2

Reference source for all entries: patent US6472348B1
